Assay: in vivo
Details: mouse, ip
MEASURED ENDPOINT: LD50

Query: Would you kindly share the measured LD50 for O=C(/C=C/C=C/C=C/C1CCCCC1)NC1=CC(O)(/C=C/C=C/C=C/C(=O)NC2=C(O)CCC2=O)C2OC2C1=O (stereo not shown) [AM-1042] ?
Response: 48.5 mg/kg
